- ASSAY METHOD TEXT: Inhibition of Mitogen-activated protein kinase p38 alpha

SMILES CODE	READING UNIT	IC50
CCOCn1nc(-c2ccncc2)c(-c2ccc(F)cc2)n1	µM	2.43

---

- ASSAY METHOD TEXT: Aqueous solubility […]
- Assay type: physicochemical, Rattus norvegicus
- CONDITION INFO: aqueous medium

SMILES CODE	solubility
COCCn1c(-c2ccnc(N[C@@H](C)c3ccccc3)n2)c(-c2ccc(F)cc2)c(=O)n1C	429 µg/mL
COC[C@@H](C)Nc1nccc(-c2c(-c3ccc(F)cc3)c(=O)n(C)n2C2CCNCC2)n1.O=C(O)C(F)(F)F	> 30000 µg/mL
C[C@H](Nc1nccc(-c2c(-c3ccc(F)cc3)c(=O)n(C3CCNCC3)n2C)n1)c1ccccc1.O=C(O)C(F)(F)F	650 µg/mL
C[C@H](Nc1nccc(-c2c(-c3ccc(F)cc3)c(=O)n(C)n2C)n1)c1ccccc1	123 µg/mL

---

- ASSAY METHOD TEXT: Half life in rats
- Assay type: ADME
- CONDITION INFO: rat, in vivo

SMILES CODE	READING UNIT	half-life
C[C@H](Nc1nccc(-c2c(-c3ccc(F)cc3)c(=O)n(C)n2C)n1)c1ccccc1	h	1.1
COC[C@@H](C)Nc1nccc(-c2c(-c3ccc(F)cc3)c(=O)n(C)n2C2CCNCC2)n1.O=C(O)C(F)(F)F	h	2.2
C[C@H](Nc1nccc(-c2c(-c3ccc(F)cc3)c(=O)n(C3CCNCC3)n2C)n1)c1ccccc1.O=C(O)C(F)(F)F	h	3.2
